Origin of values: the Human Domainome abundance scans (Beltran et al. 2025)

Recorded abundance fitness for the following variants
B1: Pituitary-specific positive transcription factor 1, residues 130 to 198; numbered along this chain, P28069 (parent)
chain: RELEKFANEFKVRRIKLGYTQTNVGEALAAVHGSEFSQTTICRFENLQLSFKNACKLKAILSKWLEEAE

variants of: B1; test: abundance fitness (aPCA) (normalised: wild type 0, dead -1); higher = more abundant; growth selection in yeast, the domain comes from the species named; settings: Homo sapiens
Answer as a number with no unit attached.

Requested read-out: abundance fitness. Entry: RELEKFANEFKVRRIKLGYTQTNVGEALAAVHGSEFSQTTICRFENLQLDFKNACKLKAILSKWLEEAE [S50D]
0.162

Please answer likewise for RELEKFANEFKVRRIKLGYTQTNVGEALAAVHGSEFSQTTICRFENLWLSFKNACKLKAILSKWLEEAE [Q48W]
-0.915

Do the same for RELEKFANEFKVRREKLGYTQTNVGEALAAVHGSEFSQTTICRFENLQLSFKNACKLKAILSKWLEEAE [I15E] please
-0.014

What would you report for NELEKFANEFKVRRIKLGYTQTNVGEALAAVHGSEFSQTTICRFENLQLSFKNACKLKAILSKWLEEAE [R1N] ?
-0.37

RELEKFANEFKVRRIKLGYTQTNVGEALAAVHGSEFSQTTICRFENLQLSFKNACKLKAILSFWLEEAE [K63F] , same question.
-0.799

Further cases:
Recorded abundance fitness for RELEKFANVFKVRRIKLGYTQTNVGEALAAVHGSEFSQTTICRFENLQLSFKNACKLKAILSKWLEEAE [E9V] , please?
-0.65

Query RELEKFANEFKVRRIKLGYTQTNVGEALAAVHGSEFSQTTICRFENLQLSFKNACKLKAILSTWLEEAE [K63T] next
0.022

RELEKFANEFKVRRIKLGYTQTNVGEALAAVHGSEFSQTTICRFENLQLSFKNACKLKAILSKWLEEFE [A68F] , same question.
-0.747

Try the variant RELEKFANEFKVRRIKLGYTQTNVGEALAAVHGSEFFQTTICRFENLQLSFKNACKLKAILSKWLEEAE [S37F]
-0.901

Then what about the variant RELEKFANEFKVRRIKLGYTQTNVGEALAAVHGSEFSQTTICRFTNLQLSFKNACKLKAILSKWLEEAE [E45T] ?
-0.821

And the next one, RELEKFANEFKVRRIKLGYTQTNVGEALAAVHGSEFSQTTICNFENLQLSFKNACKLKAILSKWLEEAE [R43N] ?
-0.085

Then RELEKFANEFKVRRIKLGYTQTNVGEALAAVHGSEFSQTTICRFENLQLSFKNACKLKAQLSKWLEEAE [I60Q] ?
-0.559

Please do the same for KELEKFANEFKVRRIKLGYTQTNVGEALAAVHGSEFSQTTICRFENLQLSFKNACKLKAILSKWLEEAE [R1K] as well.
0.376
